# Tested on: TK-10
# ASSAY: NCI tumour cell line growth inhibition, 48 h
Calls of active or inactive are those of the source. No stated cut-off is given here; in the data, active = GI50 up to about 1.1 µM and inactive = higher.
Hello, when you answer, please use one of the following outcomes: active, inactive

>  <COMPOUND>
COc1ccc(OC(C)C(=O)O)c2c1CCCC2=O (configuration not stated)

>  <CAT>
inactive

$$$$
>  <COMPOUND>
Oc1cc(Cl)ncn1

>  <CAT>
inactive

$$$$
>  <COMPOUND>
CCOC(=O)NC(C(F)(F)F)(C(F)(F)F)P(=O)(OCC)OCC

>  <CAT>
inactive

$$$$

Just curious, what result did "Cc1nc(=O)[nH]c2s/c(=N/C3CCCCC3)n(C3CCCCC3)c(=O)c12" get here? inactive

Same question, COC(=O)c1ccccc1CC1Cc2ccc3c(c2C1)CCC3 (configuration not stated) this time inactive

Same question, CC1CN=C(Nc2ccc(F)cc2F)S1 (configuration not stated) this time inactive

Same question, "COC1(OC)C2(Cl)C3=CCCC=C3C1(Cl)C(Cl)=C2Cl" this time inactive

Same question, Nc1ncnc2c1ncn2CC(O)C(=O)O (configuration not stated) this time inactive

Same question, "CCC(=O)OC[n+]1ccc2c(C)c3[nH]c4ccccc4c3c(C)c2c1" this time inactive

###

# Test system: MOLT-4
# ASSAY: NCI tumour cell line growth inhibition, 48 h
The source made the active and inactive calls. No stated cut-off is given here; in the data, active = GI50 up to about 1.1 µM and inactive = higher.
Hello, when you answer, please use one of the following outcomes: active, inactive

Examples from the recorded data:
>  <MOLECULE>
CC1(C)OC(=O)C(C#N)=C1C[n+]1ccccc1

>  <CAT>
inactive

$$$$
>  <MOLECULE>
Nc1cccc(/C=C/CN2CCN(CCOC(c3ccccc3)c3ccccc3)CC2)c1

>  <CAT>
inactive

$$$$
>  <MOLECULE>
Cc1nc2ccc(S(=O)(=O)Nc3ccccn3)cc2c(=O)n1NS(=O)(=O)c1ccccn1

>  <CAT>
inactive

$$$$
>  <MOLECULE>
O=C(O)c1ccc(NC(NC(=O)C(C(F)(F)F)C(F)(F)F)(C(F)(F)F)C(F)(F)F)cc1

>  <CAT>
inactive

$$$$
>  <MOLECULE>
Cc1cnc2c(c1)C(=O)C1=C(OC(C)(C)CC1O)C2=O (stereo not drawn)

>  <CAT>
inactive

$$$$

Just curious, what result did N#CC1C(C#N)C2(c3ccccc3)C(c3ccccc3)=NN(c3ccccc3)CC12 (stereo not drawn) get here? inactive

Same question, COc1nc(=O)n(C2CC(N=[N+]=[N-])C(CO)O2)cc1C (stereo not drawn) this time inactive

###

# Tested on: MDA-N
# ASSAY: NCI tumour cell line growth inhibition, 48 h
Activity calls are given as the source filed them. Rule as the data show it: active = GI50 up to about 1.1 µM and inactive = higher.
Hello, when you answer, please use one of the following outcomes: active, inactive

Examples from the recorded data:
>  <COMPOUND>
COC1=C2CC(C)CC(OC)[C@@H](OC(=O)CCN)[C@H](C)/C=C(\C)C(OC(N)=O)C(OC)/C=C\C=C(/C)C(=O)NC(=CC1=O)C2=O (stereo not given in full)

>  <CAT>
active

$$$$
>  <COMPOUND>
Cc1cc2c(c(O)c1-c1c(C)cc(O)c3c1C(=O)C=CC3=O)C(=O)C=CC2=O

>  <CAT>
inactive

$$$$

Just curious, what result did "Nc1ccccc1.O=P(O)(OP(=O)(O)c1ccccc1)c1ccccc1" get here? inactive

Same question, "CC(=O)OCCN1c2ccccc2Sc2cnccc21" this time inactive

Same question, "O=c1cc(C(F)(F)F)c2cc3c(cc2o1)NCCC3" this time inactive

Same question, CSC1=C(C#N)C(=O)N(c2ccc(C)cc2)C(=O)C1C#N (stereo not given) this time inactive

Same question, "Cc1ccnc(Nc2[nH]c(C(=O)c3ccc(Cl)cc3)c(N)c2C(=S)Nc2ccccc2)c1" this time inactive

Same question, "O=c1[nH]nc(Cc2ccc(Cl)cc2)n1O" this time inactive

Same question, "C/C(=C/CNc1ncnc2c1ncn2CCC#N)CO" this time inactive

Same question, "CC(=O)N(C(C)=O)n1c(Cc2ccc(Cl)cc2)n[nH]c1=O" this time inactive
